- SYSTEM UNDER TEST: T1, Haa1(DBD)-His6 (Saccharomyces cerevisiae, UniProt Q12753 1-123)
- T1 sequence: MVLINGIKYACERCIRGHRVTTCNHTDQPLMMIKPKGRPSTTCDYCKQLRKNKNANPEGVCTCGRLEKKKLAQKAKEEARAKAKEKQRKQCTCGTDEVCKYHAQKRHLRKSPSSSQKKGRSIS
- ASSAY DETAILS: SPR
pKd: −log10 of the molar value.
I would appreciate it if you labelled entries rule met when pKd is 8 or higher, otherwise rule not met.

HRE mutant 2 (GGCCAGGGG) (dsDNA) DNA 1: TTCTCTGTGCTTGGCCAGGGGTTTACTGGAGCCCAATC DNA 2: GATTGGGCTCCAGTAAACCCCTGGCCAAGCACAGAGAA ... rule met
HRE mutant 1 (AGCGAGGGG) (dsDNA) DNA 1: TTCTCTGTGCTTAGCGAGGGGTTTACTGGAGCCCAATC DNA 2: GATTGGGCTCCAGTAAACCCCTCGCTAAGCACAGAGAA ... rule met

Form field: pKd at least 8? Entry: HRE mutant 4 (GGCGAAGGG) (dsDNA) DNA 1: TTCTCTGTGCTTGGCGAAGGGTTTACTGGAGCCCAATC DNA 2: GATTGGGCTCCAGTAAACCCTTCGCCAAGCACAGAGAA
rule not met

Textbook exercise: given the entry HRE mutant 7 (GGCGAGGAG) (dsDNA) DNA 1: TTCTCTGTGCTTGGCGAGGAGTTTACTGGAGCCCAATC DNA 2: GATTGGGCTCCAGTAAACTCCTCGCCAAGCACAGAGAA , state whether its pKd is greater than or equal to 8.
rule not met

Could you please find out whether HRE mutant 6 (GGCGAGGCG) (dsDNA) DNA 1: TTCTCTGTGCTTGGCGAGGCGTTTACTGGAGCCCAATC DNA 2: GATTGGGCTCCAGTAAACGCCTCGCCAAGCACAGAGAA has pKd that meets 8 or exceeds it?
rule not met
